Value source: PubChem BioAssay (NCI)

Tested on: ACHN renal
experimental-protocol: NCI-60 one-dose screen, 48 h (100 = growth as untreated, 0 = no growth, -100 = all killed)
test-parameters: 10 µM unless noted
The panel holds about 83,000 compounds, 20% with a hit somewhere; the sample as a whole holds those more often.
We use 90% as the dividing line for growth: on or above the line is rule met, below is rule not met.

Example cases with answers are listed next.
CN(C)CCCn1c2c(c3cnccc3c1=O)C(=O)c1ccccc1-2	rule not met
c1ccc2cc(Cn3cc(CSc4nc5ccccc5s4)nn3)ccc2c1	rule met
COc1ccc(C/C(C)=C(\c2ccc(Cl)cc2)c2ccc(OCCN3CCCC3)cc2)cc1	rule met

Determine whether measured growth meets or exceeds 90% for CC(C)(C)c1ccc(S(=O)(=O)Oc2ccc(-c3sc4cc(OS(=O)(=O)c5ccc(C(C)(C)C)cc5)ccc4c3C(=O)c3ccc(OCCN4CCCCC4)cc3)cc2)cc1 rule met

Determine whether measured growth meets or exceeds 90% for Nc1nc2ccccc2c2c(=O)c3cc(Cl)ccc3sc12 rule met

Determine whether measured growth meets or exceeds 90% for Clc1ccc2nn3c4ccccc4c(OCCN4CCOCC4)nc3c2c1 rule not met

Determine whether measured growth meets or exceeds 90% for Clc1ccc(-c2cc(-c3ccccc3)nc(N3CCN(CCCNc4ccnc5cc(Cl)ccc45)CC3)n2)cc1 rule not met

Determine whether measured growth meets or exceeds 90% for CCOC(=O)C1=C(c2ccccc2)N=C2N(c3ccccc3)N=C(C(C)=O)N2C1c1ccc(F)cc1 (centres undefined) rule met

----------
Tested on: 786-0 renal
experimental-protocol: NCI-60 one-dose screen, 48 h (100 = growth as untreated, 0 = no growth, -100 = all killed)
test-parameters: 10 µM unless noted
This is part of a sample that, as a whole, favours compounds with a hit. Of some 83,000 tested, about 20% had one in any assay.
metric: growth (%)
Write the number in % without appending the unit.

# annotated cases, reported growth shown
COC(=O)c1ccc2c(c1)c1c(C)c3cnccc3c(C)c1n2C	-63.4
CSc1ccc(N2C(=N)C(=S)N(c3ccc(C)cc3)C2=O)cc1	91.5
O=C(c1c[nH]c2ccccc12)c1n[nH]c(=S)n1-c1ccc([N+](=O)[O-])cc1	115
COc1ccc2[nH]cc(-c3nonc3-c3c[nH]c4ccc(Br)cc34)c2c1	61.4
C/C(Cc1ccc(Cl)cc1)=C(\c1ccc(OCCN2CCCCCC2)cc1)c1ccc(OC(=O)c2ccccc2)cc1	12
COc1cc(-c2cc(-c3ccc(Nc4nc(Nc5ccc(Cl)cc5)nc(Nc5ccc(Cl)cc5)n4)cc3)no2)cc(OC)c1OC	72.7
O=C(Nc1cccnc1Nc1ccc(Cl)cc1)c1cn(Cc2cccc(Oc3ccccc3)c2)nn1	52.2
CCN(CC)CCOc1ccc(/C(=C(\C)Cc2ccc(OC)cc2)c2ccc(OC(=O)NCc3ccccc3)cc2)cc1	56.7
Cc1ccc2c(c1)nc(C)n2-c1ncnc2c1CC(C)c1cc(O)ccc1N2C (centres undefined)	33.4
Cc1ccc2cnc(N)c(C#Cc3cc(C(=O)Nc4ccc(CN5CCN(C)CC5)c(C(F)(F)F)c4)cnc3C)c2c1	-82.8

The measured growth that COc1ccc(-c2nc3ccc(C)cc3c3c2c(=O)n(C)c(=O)n3C)cc1OC showed for 786-0 renal is 103

----------
Tested on: SNB-19 CNS
experimental-protocol: NCI-60 one-dose screen, 48 h (100 = growth as untreated, 0 = no growth, -100 = all killed)
test-parameters: 10 µM unless noted
About 83,000 compounds went through this panel and 20% of them were active in at least one assay; those are over-represented in the sample as a whole. Calls of active or inactive are those of the source. Rule for the calls: active = growth percent below 10; inactive = the rest.
metric: growth

# annotated cases, reported growth shown
CCCCO[C@@H]1C=C2[C@H]3CC(C)(C)C(=O)C[C@]3(C(=O)O[C@@H]3O[C@H](CO[C@@H]4O[C@H](CO)[C@@H](OC5OC(C)C(O)C(O)C5O)[C@H](O)[C@H]4O)[C@@H](O)[C@H](O)[C@H]3O)CC[C@@]2(C)[C@]2(C)CC[C@H]3C(C)(C)C(=O)CC[C@]3(C)[C@@H]12 (some centres undefined)	88% (inactive)
Clc1ccc(Nc2ncc(Cc3cccc(Cl)c3Cl)s2)cc1	98% (inactive)
O=C(Nc1cccnc1Nc1ccc(Cl)cc1)c1cn(Cc2cccc(Oc3ccccc3)c2)nn1	50.1% (inactive)
Clc1ccc2nn3c4ccccc4c(OCCN4CCOCC4)nc3c2c1	81.1% (inactive)
CC(=O)c1c(Nc2cccc(F)c2)[nH]c2c(Cl)cc(Cl)c(Cl)c2c1=O	16.6% (inactive)
CC(O)Cc1c[nH]c(=O)[nH]c1=O (centres undefined)	108% (inactive)
Cc1nc2ccccc2c(/C=C/c2ccc(F)cc2)c1C(=O)/C=C/c1ccccc1	38.2% (inactive)
Cn1c(C#N)ccc1-c1ccc(F)c(NC(=O)c2ccc(F)cc2)c1	84.1% (inactive)

Entry COc1ccc(NC(=O)c2ccc(Nc3ncnc4c3cnn4-c3cccc(F)c3)cc2)cc1 — recorded growth = 94.7% (inactive)

Entry Cc1ccc(OCCOCCOCCOCCOCCOc2ccc(C)n(O)c2=S)c(=S)n1O — recorded growth = 16.7% (inactive)

Entry Cc1cc(N2CCN(CC(=O)Nc3ccc4c(ccn4Cc4ccccc4)c3)CC2)nc(N2CCOCC2)n1 — recorded growth = 84.3% (inactive)

Entry Cc1cc(=O)n(C(=S)Nc2ccc(Cl)cc2)c2cc(O)ccc12 — recorded growth = 102% (inactive)

Entry O=C1CCCCN1c1ccc(C2=NCCCN2)cc1 — recorded growth = 89.2% (inactive)

Entry CN1C(=O)/C(=C/c2ccc(C(=O)Nc3ncc(Cc4cccc(C(F)(F)F)c4)s3)cc2)SC1=S — recorded growth = 61.5% (inactive)

Entry CCC(C)(C)c1ccc(Nc2ccc(Nc3ccc(C(C)(C)CC)cc3)cc2)cc1 — recorded growth = 95.9% (inactive)

Entry COc1cc2ncnc(Nc3ccc(F)c(Cl)c3)c2cc1OCC(=O)N1CCOCC1 — recorded growth = 86% (inactive)

Entry C=C1C(=O)O[C@@H]2C3C(=C(C)CC[C@@H]12)CC1O[C@]13C (some centres undefined) — recorded growth = 92.8% [6.75 µM] (inactive)

Entry COc1ccc(-c2nc3ccc(C)cc3c3c2c(=O)n(C)c(=O)n3C)cc1OC — recorded growth = 98.7% (inactive)

Entry C#COc1cccc(Nc2ncnc3cc(NC(=O)[C@H](C)Cl)ccc23)c1 — recorded growth = 19.3% [6.25 µM] (inactive)

----------
Tested on: HS 578T breast
experimental-protocol: NCI-60 one-dose screen, 48 h (100 = growth as untreated, 0 = no growth, -100 = all killed)
test-parameters: 10 µM unless noted
This is part of a sample that, as a whole, favours compounds with a hit. Of some 83,000 tested, about 20% had one in any assay.
metric: growth (%)
Write the number in % without appending the unit.

# annotated cases, reported growth shown
COc1cc(/C=C/c2cc(/C=C/c3ccc(O)c(OC)c3)n(C(=O)Nc3ccc(Cl)cc3)n2)ccc1O	8.23
C=C(C)[C@@H]1CC[C@]2(C(=O)Nc3ccccn3)CC[C@]3(C)[C@H](CC[C@@H]4[C@@]5(C)CCCNC(C)(C)[C@@H]5CC[C@]43C)[C@@H]12	26.9

Entry COc1ccc2c(c1)CC[C@@H]1[C@@H]2CC[C@]2(C)C3C(=CC(COC(C)=O)C4C(=O)N(c5ccc(Cl)cc5)C(=O)C43)C[C@@H]12 (stereo partly drawn) — recorded growth = 110

Entry COc1ccc(C2CC(c3ccccc3)=NN2C(=O)c2cc(OC)c(OC)c(OC)c2)cc1O (stereo not drawn) — recorded growth = 23.5

Entry Cc1c2ncccc2nc2[nH]c3ccc(OCCN(C)C)cc3c12 — recorded growth = 47.9

Entry COc1ccc2c(c1)CC[C@@H]1[C@@H]2CC[C@]2(C)c3c(cc(C#N)c4c3sc3ccccc34)C[C@@H]12 — recorded growth = 94.6

Entry c1csc(-c2cn3nc(-c4c[nH]c5ccccc45)sc3n2)c1 — recorded growth = 29.1

Entry O=C(Oc1ccc2c(c1)sc1nc(-c3ccccc3)[nH]c(=O)c12)C(F)(F)F — recorded growth = 18.8

----------
System: SW-620 colon
experimental-protocol: NCI-60 one-dose screen, 48 h (100 = growth as untreated, 0 = no growth, -100 = all killed)
test-parameters: 10 µM unless noted
About 83,000 compounds went through this panel and 20% of them were active in at least one assay; those are over-represented in the sample as a whole.
Overview of recorded growth for various compounds
Write the number in % without appending the unit.

# annotated cases, reported growth shown
Cc1cc(N2CCN(CC(=O)Nc3ccc4c(ccn4Cc4ccccc4)c3)CC2)nc(N2CCOCC2)n1	95
COc1cc2c(cc1OCCCN1CCN(C(=S)SCCC(C#N)(c3ccccc3)c3ccccc3)CC1)N=C[C@@H]1CCCN1C2=O	-100
COc1ccc(/C=C2\c3cc(OC)c(OC)c(OC)c3CC[C@@H]2O)cc1F	28
O=C(/C=C/c1ccco1)Nc1ncc(Cc2cc(Cl)ccc2Cl)s1	20.6
CCOC(=O)c1ccc[nH]1	113
O=[N+]([O-])c1ccccc1Sc1ccccc1[N+](=O)[O-]	110

Entry COc1ccc(C2[C@@H](Cl)C(=O)N2c2cc(OC)c(OC)c(OC)c2)cc1Cl (stereo not given in full) — recorded growth = 21.9
